Measured IC50, listed per entry for reference.
system: A375 cells; assay: 72-hour cell viability assay (Alamar Blue), A375; assay type: cell-based, human; conditions: 72-hour incubation, Alamar Blue, V600E BRAF

- compound: "CC(C)(C)c1nc(-c2cccc(NS(=O)(=O)c3c(F)cccc3F)c2F)c(-c2ccnc(N[C@H]3CC[C@H](C(=O)O)CC3)n2)s1"
  IC50 / nM: 166
- compound: "CC(C)(C)c1nc(-c2cccc(NS(=O)(=O)c3c(F)cccc3F)c2F)c(-c2ccnc(NCCCC(=O)O)n2)s1"
  IC50 / nM: 628
- compound: "CC(C)(C)c1nc(-c2cccc(NS(=O)(=O)c3c(F)cccc3F)c2F)c(-c2ccnc(N)n2)s1 [Dabrafenib, reference compound]"
  IC50 / nM: 7.46
- compound: "CC(C)(C)c1nc(-c2cccc(NS(=O)(=O)c3c(F)cccc3F)c2F)c(-c2ccnc(NCCCCC(=O)O)n2)s1"
  IC50 / nM: 115
